System: Toxoplasma (RH-β1 strain) in HFF (Human Foreskin Fibroblast) cells
Assay: Antitoxoplasmic activity in vitro, colorimetric microtitre proliferation test
Format: cell-based, Toxoplasma gondii
Settings: read-out: Toxoplasma Proliferation test (IC 50); HFF monolayer infected with RH-β1 strain, 48 hours incubation, β-galactosidase activity (CPRG)
READOUT: pIC50
Please note pIC50 is a logarithmic value: minus log10 of concentration in mol/L. Answer with that number alone.

Problem: GET /values?readout=pIC50&item= CCCCCCCCCCCCCC(=O)OC1CC2(CC[C@]3(C=CC(=O)C=C3)O2)O[C@@]2(CC[C@]3(C=CC(=O)C=C3)O2)C1 (stereo partly shown) [16d]
Solution: 6.20

* * *

Tested on: Plasmodium falciparum 3D7 strain (chloroquine-sensitive)
Assay: Antimalarial activity in vitro, [3H]-hypoxanthine isotopic microtest
Type: cell-based
Settings: asynchronous culture of infected erythrocytes, 48 hours + 18 hours [3H]-hypoxanthine; read-out: Plasmodium Proliferation test 3D7 strain (IC 50)
READOUT: pIC50
Please note pIC50 is a logarithmic value: minus log10 of concentration in mol/L. Answer with that number alone.

Worked cases, pIC50 given:
CCCOC(=O)C[C@@H]1C[C@@H](O)C[C@]2(CCC3(C=CC(=O)C=C3)O2)O1 (mixture of isomers) [10a] :: 5.73
CCCCCCCCCCCCCC(=O)OC1CC2(CC[C@]3(C=CC(=O)C=C3)O2)O[C@@]2(CC[C@]3(C=CC(=O)C=C3)O2)C1 (stereo partly shown) [16d] :: 7.04
O=C1C=CC2(C=C1)CC[C@]1(CC(O)C[C@@]3(CCC4(C=CC(=O)C=C4)O3)O1)O2 (stereo partly shown) [4a] :: 6.38
CCCCCCCCCCCCCC(=O)CC(=O)OC1C[C@]2(CCC3(C=CC(=O)C=C3)O2)O[C@]2(CCC3(C=CC(=O)C=C3)O2)C1 (stereo partly shown) [16e] :: 6.91
CCCCCCCCCCCCC[C@@H]1C[C@@H](O)C[C@]2(CCC3(C=CC(=O)C=C3)O2)O1 [Natural aculeatin A, aculeatin A, reference compound] :: 6.54
CCCCCCC(=O)OC1CC2(CC[C@]3(C=CC(=O)C=C3)O2)O[C@@]2(CC[C@]3(C=CC(=O)C=C3)O2)C1 (stereo partly shown) [16b] :: 6.48

Problem: GET /values?readout=pIC50&item= CCCCCCCCCCCCC[C@@H]1C[C@H](O)C[C@]2(CCC3(C=CC(=O)C=C3)O2)O1 [Natural aculeatin B, aculeatin B, reference compound]
Solution: 6.34
